Attribution: patent US4772587A

system: experimental amnesia caused in rats by scopolamine; assay: Preventive effect against experimental amnesia caused in rats by scopolamine (passive avoidance learning); type: in vivo, Wister male rats; conditions: sample 100 μg/kg i.p.; scopolamine 3 mg/kg i.p. after learning
Residues, ends and D or L forms follow the SMILES beside them. *: point of attachment. Oleoyl = CCCCCCCC/C=C\CCCCCCCC(=O)*; Stearoyl = CCCCCCCCCCCCCCCCCC(=O)*; Palmitoyl = CCCCCCCCCCCCCCCC(=O)*
Readings of Percentage amnesia for the listed compounds
Supply the numeric figure in %, leaving out any unit text.

Previously resolved entries follow.
compound | unitsOfMeasure | Percentage amnesia
CCCCCCCC/C=C\CCCCCCCC(=O)NC(CCSC)C(=O)N1CCCC1C=O (stereo not drawn) [SUAM 1214, oleoyl-Met-Pro-CHO] (Oleoyl-Met-Pro-aldehyde; configuration not given here) | % | 10
CCCCCCCC/C=C\CCCCCCCC(=O)NC(C(=O)N1CCCC1C=O)C(C)C (stereo not drawn) [SUAM 1156, oleoyl-Val-Pro-CHO] (Oleoyl-Val-Pro-aldehyde; configuration not given here) | % | 10
CCCCCCCCCCCCCCCC(=O)NC(CC(C)C)C(=O)N1CCCC1C=O (stereo not drawn) [SUAM 1155, palmitoyl-Leu-Pro-CHO] (Palmitoyl-Leu-Pro-aldehyde; configuration not given here) | % | 0

Input line: Which Percentage amnesia value is on record for CCCCCCCC/C=C\CCCCCCCC(=O)NC(CC(C)C)C(=O)N1CCCC1C=O (stereo not drawn) [SUAM 1140, Oleoyl-Leu-Pro-CHO] (Oleoyl-Leu-Pro-aldehyde; configuration not given here) ?
Output line: 0

Input line: Do the same for CCCCCCCC/C=C\CCCCCCCC(=O)NC(CC(C)C)C(=O)NC(CC(C)C)C(=O)N1CCCC1C=O (stereo not drawn) [SUAM 1158, oleoyl-Leu-Leu-Pro-CHO] (Oleoyl-Leu-Leu-Pro-aldehyde; configuration not given here) please
Output line: 0

Input line: // repeat for CCCCCCCCCCCCCCCCCC(=O)NC(CC(C)C)C(=O)N1CCCC1C=O (stereo not drawn) [SUAM 1154, stearoyl-Leu-Pro-CHO] (Stearoyl-Leu-Pro-aldehyde; configuration not given here) and report
Output line: 0

----------
biological target: prolyl endopeptidase (Elizabethkingia meningoseptica); experiment: Measurement of anti-prolyl endopeptidase activity (decomposition of Z-glycyl-proline-β-naphthylamide); format: biochemical; conditions: substrate Z-glycyl-proline-β-naphthylamide, phosphate buffer pH 7.0
Sequence (P27028 21-705): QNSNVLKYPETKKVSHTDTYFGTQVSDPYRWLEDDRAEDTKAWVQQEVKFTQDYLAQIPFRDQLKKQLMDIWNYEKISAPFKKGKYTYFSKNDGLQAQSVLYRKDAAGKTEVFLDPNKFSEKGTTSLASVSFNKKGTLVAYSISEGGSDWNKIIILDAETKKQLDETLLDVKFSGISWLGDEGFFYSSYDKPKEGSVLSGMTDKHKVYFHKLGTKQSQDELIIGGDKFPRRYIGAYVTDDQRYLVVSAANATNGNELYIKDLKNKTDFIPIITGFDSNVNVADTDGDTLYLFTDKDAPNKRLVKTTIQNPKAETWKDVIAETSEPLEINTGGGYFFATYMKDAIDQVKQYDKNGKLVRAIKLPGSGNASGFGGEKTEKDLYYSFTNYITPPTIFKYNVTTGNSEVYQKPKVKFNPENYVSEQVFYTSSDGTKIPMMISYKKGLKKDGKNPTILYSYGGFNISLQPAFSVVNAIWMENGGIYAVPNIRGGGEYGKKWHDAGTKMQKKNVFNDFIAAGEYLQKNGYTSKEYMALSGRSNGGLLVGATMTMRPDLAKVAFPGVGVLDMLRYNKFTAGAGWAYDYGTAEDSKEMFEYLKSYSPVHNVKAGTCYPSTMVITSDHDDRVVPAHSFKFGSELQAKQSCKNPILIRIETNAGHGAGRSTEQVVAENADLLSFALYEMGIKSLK
Residues, ends and D or L forms follow the SMILES beside them. *: point of attachment. Oleoyl = CCCCCCCC/C=C\CCCCCCCC(=O)*; Stearoyl = CCCCCCCCCCCCCCCCCC(=O)*; Palmitoyl = CCCCCCCCCCCCCCCC(=O)*; Cbz = O=C(OCc1ccccc1)*
// assign TRUE if IC50 (amount of compound to achieve 50% inhibition) falls strictly below 0.8 ng/test tube, else FALSE (ties count as FALSE)

compound | cat
CCCCCCCC/C=C\CCCCCCCC(=O)NC(CC(C)C)C(=O)NC(CC(C)C)C(=O)N1CCCC1C=O (stereo not drawn) [SUAM 1158, oleoyl-Leu-Leu-Pro-CHO] (Oleoyl-Leu-Leu-Pro-aldehyde; configuration not given here) | FALSE
CCCCCCCC/C=C\CCCCCCCC(=O)NC(CCC=O)C(=O)N1CCCC1C=O (stereo not drawn) [SUAM 1217, oleoyl-Glu(CHO)-Pro-CHO] | TRUE
CCCCCCCC/C=C\CCCCCCCC(=O)N[C@@H](Cc1ccccc1)C(=O)N1CCC[C@H]1C=O [SUAM 1212, oleoyl-Phe-Pro-CHO] (Oleoyl-Phe-Pro-aldehyde) | TRUE

Input line: IC50 (amount of compound to achieve 50% inhibition) under 0.8 ng/test tube? Item: CCCCCCCCCCCCCCCC(=O)NC(CC(C)C)C(=O)N1CCCC1C=O (stereo not drawn) [SUAM 1155, palmitoyl-Leu-Pro-CHO] (Palmitoyl-Leu-Pro-aldehyde; configuration not given here)
Output line: TRUE

Input line: Request: CCCCCCCC/C=C\CCCCCCCC(=O)NC(CCSC)C(=O)N1CCCC1C=O (stereo not drawn) [SUAM 1214, oleoyl-Met-Pro-CHO] (Oleoyl-Met-Pro-aldehyde; configuration not given here)
Output line: TRUE

Input line: Do the same for CCCCCCCC/C=C\CCCCCCCC(=O)N1CCCC1C(=O)N1CCCC1C=O (stereo not drawn) [SUAM 1215, Oleoyl-Pro-Pro-CHO] (Oleoyl-Pro-Pro-aldehyde; configuration not given here) please
Output line: TRUE

Input line: Similarly, CCCCCCCCCCCCCCCCCC(=O)NC(CC(C)C)C(=O)N1CCCC1C=O (stereo not drawn) [SUAM 1154, stearoyl-Leu-Pro-CHO] (Stearoyl-Leu-Pro-aldehyde; configuration not given here) ?
Output line: FALSE

Input line: Now the same for CCCCCCCC/C=C\CCCCCCCC(=O)NC(C(=O)N1CCCC1C=O)C(C)C (stereo not drawn) [SUAM 1156, oleoyl-Val-Pro-CHO] (Oleoyl-Val-Pro-aldehyde; configuration not given here)
Output line: TRUE

Input line: Also check CCCCCCCC/C=C\CCCCCCCC(=O)NC(C)C(=O)N1CCCC1C=O (stereo not drawn) [SUAM 1092, oleoyl-Ala-pro-CHO]
Output line: FALSE

Input line: Next record, please: CCCCCCCC/C=C\CCCCCCCC(=O)NC(CCCCNC(=O)OCc1ccccc1)C(=O)N1CCCC1C=O (stereo not drawn) [SUAM 1216, oleoyl-Lys(Z)-Pro-CHO] (Oleoyl-Lys(Cbz)-Pro-aldehyde; configuration not given here)
Output line: TRUE

----------
test system: experimental amnesia caused in rats by scopolamine; assay: Preventive effect against experimental amnesia caused in rats by scopolamine (passive avoidance learning); assay type: in vivo, Wister male rats; conditions: sample 25 μg/kg i.p.; scopolamine 3 mg/kg i.p. after learning
Non-standard residues stand in square brackets, D forms with d. Residues, ends and D or L forms follow the SMILES beside them. *: point of attachment. Oleoyl = CCCCCCCC/C=C\CCCCCCCC(=O)*; Nle = CCCC[CH](N)C(=O)O
assayMetric: No. of amnesic rats/No. of rats tested

compound | No. of amnesic rats/No. of rats tested
CCCCCCCC/C=C\CCCCCCCC(=O)NC(CCCC)C(=O)N1CCCC1C=O (stereo not drawn) [SUAM 1166, oleoyl-norLeu-Pro-CHO] (Oleoyl-[Nle]-Pro-aldehyde; configuration not given here) | 0/10

Input line: Name the reported No. of amnesic rats/No. of rats tested value associated with the compound CCCCCCCC/C=C\CCCCCCCC(=O)NC(CC(C)C)C(=O)NC(CC(C)C)C(=O)N1CCCC1C=O (stereo not drawn) [SUAM 1158, oleoyl-Leu-Leu-Pro-CHO] (Oleoyl-Leu-Leu-Pro-aldehyde; configuration not given here)
Output line: 0/10

Input line: Input CCCCCCCC/C=C\CCCCCCCC(=O)NC(CC(C)C)C(=O)N1CCCC1C=O (stereo not drawn) [SUAM 1140, Oleoyl-Leu-Pro-CHO] (Oleoyl-Leu-Pro-aldehyde; configuration not given here)
Output line: 0/5

Input line: CCCCCCCC/C=C\CCCCCCCC(=O)NC(CCSC)C(=O)N1CCCC1C=O (stereo not drawn) [SUAM 1214, oleoyl-Met-Pro-CHO] (Oleoyl-Met-Pro-aldehyde; configuration not given here) , same question.
Output line: 0/10

Input line: Lookup CCCCCCCC/C=C\CCCCCCCC(=O)N[C@@H](Cc1ccccc1)C(=O)N1CCC[C@H]1C=O [SUAM 1212, oleoyl-Phe-Pro-CHO] (Oleoyl-Phe-Pro-aldehyde)
Output line: 0/10

Input line: Then this compound: CCCCCCCC/C=C\CCCCCCCC(=O)N1CCCC1C(=O)N1CCCC1C=O (stereo not drawn) [SUAM 1215, Oleoyl-Pro-Pro-CHO] (Oleoyl-Pro-Pro-aldehyde; configuration not given here)
Output line: 0/10
